# Test system: rice
# experiment notes: Test B flooded paddy test
# Type: in vivo, Oryza sativa
# details: 1000 g ai/ha, visual rating, scale 0 to 100 (0 no effect, 100 complete control), 13 to 15 days
# Method: At the same time, plants selected from these crop and weed species and also blackgrass (Alopecurus myosuroides Huds.), wheat (Triticum aestivum L.) and wild oat (Avena fatua L.) were treated with postemergence applications of test chemicals formulated in the same manner. […] Treated plants and controls were maintained in a greenhouse for 13 to 15 days, after which time all species were compared to controls and visually evaluated. […]
Measured Rice plant response rating values are reported for all entries that follow.

{"columns": ["smiles input", "assayed system", "Rice plant response rating"],
 "data": [
  ["CCn1nc(C(C)(C)C)cc1C(=O)Nc1cc(C(=O)NCCOC)ccn1", "rice", 40],
  ["CCOC(=O)c1cc(N(C(C)=O)C(=O)c2cc(C(C)(C)C)nn2CC)ccc1C", "rice", 0],
  ["C#CCNC(=O)c1cccc(NC(=O)c2cc(C(C)(C)C)nn2CC)c1", "rice", 70],
  ["CC(=NO)c1cccc(NC(=O)c2sc(C(C)(C)C)nc2C)c1", "rice", 30],
  ["CCCN1CCc2c(NC(=O)c3cc(C(C)(C)C)nn3CC)cccc2C1=O", "rice", 50],
  ["CCN(CC)C(=O)c1cccc(NC(=O)c2cn(C(C)(C)C)nc2C(F)(F)F)c1", "rice", 0],
  ["CCNC(=O)c1cccc(NC(=O)c2sc(C(C)(C)C)nc2C)c1", "rice", 20],
  ["CCNC(=O)c1cc(NC(=O)c2cc(C(C)(C)C)nn2CC)ccc1F", "rice", 60],
  ["CCn1nc(C(C)(C)C)cc1C(=O)Nc1cccc(C(=O)OCC(F)(F)F)c1", "rice", 10],
  ["C=CCNC(=O)c1cccc(NC(=O)c2sc(C(C)(C)C)nc2CC)c1", "rice", 60]
]}

---

Measured Plant response rating, Nutsedge, Yellow values are reported for all entries that follow.
# Tested on: yellow nutsedge
# experiment notes: Test C pre-/postemergence herbicide test
# Format: in vivo, Cyperus esculentus
# details: 125 g ai/ha; scale 0 (no effect) to 100 (complete control); visual, 12 to 14 days; preemergence

{"columns": ["compound", "Plant response rating, Nutsedge, Yellow"],
 "data": [
  ["CCn1nc(C(C)(C)C)cc1C(=O)Nc1cccc(SC)c1 [Compound 131]", 0],
  ["C#CCn1nc(C(C)(C)C)cc1C(=O)Nc1cccc(C(=O)NCC)c1 [Compound 50]", 10],
  ["CCCN1CCc2c(NC(=O)c3cc(C(C)(C)C)nn3CC)cccc2C1=O [Compound 65]", 0],
  ["CCn1nc(C(C)(C)C)cc1C(=S)Nc1cc(C(=S)N(C)C)ccc1F [Compound 305]", 20],
  ["CCn1nc(C(C)(C)C)cc1C(=O)Nc1cc(C(=S)N(C)C)ccc1F [Compound 294]", 55]
]}

---

Measured Plant response rating, Foxtail, Giant values are reported for all entries that follow.
# Tested on: giant foxtail
# experiment notes: Test B pre-/postemergence herbicide test
# Type: in vivo, Setaria faberi
# details: preemergence, 125 g ai/ha; 0 to 100 scale, 0 is no effect, 100 is complete control

{"columns": ["smiles input", "Plant response rating, Foxtail, Giant"],
 "data": [
  ["C=Cn1nc(C(C)(C)C)cc1C(=O)Nc1cccc(C(=O)NCC)c1", 80],
  ["CCn1nc(C(C)(C)C)cc1C(=O)Nc1cccc(SC)c1", 10],
  ["C=Cn1nc(C(C)(C)C)cc1C(=O)Nc1cccc(C(=O)NCC(F)(F)F)c1", 20],
  ["CCn1nc(C(C)(C)C)cc1C(=O)Nc1cccc(C(=O)OCC(F)(F)F)c1", 0]
]}

---

# Tested on: johnsongrass
# experiment notes: Test C pre-/postemergence herbicide test
# Type: in vivo, Sorghum halepense
# details: 125 g ai/ha; scale 0 (no effect) to 100 (complete control); visual, 12 to 14 days; preemergence
Measured Plant response rating, Johnsongrass values are reported for all entries that follow.

{"columns": ["compound", "Plant response rating, Johnsongrass"],
 "data": [
  ["CCN(C)C(=O)c1ccc(F)c(NC(=O)C2CC(C(C)(C)C)=NN2CC)c1 (racemic)", 80],
  ["C#CCNC(=O)c1cccc(NC(=O)c2cc(C(C)(C)C)nn2CC)c1", 100],
  ["CCNC(=O)c1cc(NC(=O)c2cc(C(C)(C)C)nn2CC)ccc1F", 80]
]}

---

# Tested on: goosegrass
# experiment notes: Test C pre-/postemergence herbicide test
# Format: in vivo, Eleusine indica
# details: Postemergence; 250 g ai/ha; scale 0 to 100, 0 no effect, 100 complete control

{"columns": ["smiles input", "assayed system", "Plant response rating, Goosegrass"],
 "data": [
  ["C#CCn1nc(C(C)(C)C)cc1C(=O)Nc1cccc(C(=O)NCC)c1", "goosegrass", 90],
  ["CC(=NO)c1cccc(NC(=O)c2cc(C(C)(C)C)nn2CCF)c1", "goosegrass", 70],
  ["C=CCNC(=O)c1cccc(NC(=O)c2cc(C(C)(C)C)nn2CC)c1", "goosegrass", 50],
  ["CCOC(=O)c1cc(NC(=O)c2cc(C(C)(C)C)nn2CC)ccc1OC", "goosegrass", 5],
  ["CCNC(=O)c1cc(NC(=O)c2cc(C(C)(C)C)nn2CC)ccc1F", "goosegrass", 10],
  ["C=Cn1nc(C(C)(C)C)cc1C(=O)Nc1cccc(C(C)=NO)c1", "goosegrass", 70],
  ["CCn1nc(C(C)(C)C)cc1C(=O)Nc1cccc(OC(F)F)c1", "goosegrass", 15],
  ["CCn1nc(C(C)(C)C)cc1C(=O)Nc1cccc(SC(F)(F)F)c1", "goosegrass", 60],
  ["C#CCNC(=O)c1cccc(NC(=O)c2cc(C(C)(C)C)nn2CC)c1", "goosegrass", 60]
]}

---

# System: yellow nutsedge
# experiment notes: Test C pre-/postemergence herbicide test
# Assay type: in vivo, Cyperus esculentus
# details: Preemergence, 500 g ai/ha; scale 0 to 100, 0 no effect, 100 complete control
Measured Nutsedge, Yellow plant response rating values are reported for all entries that follow.

{"columns": ["smiles input", "Nutsedge, Yellow plant response rating"],
 "data": [
  ["CCn1nc(C(C)(C)C)cc1C(=O)Nc1cccc2c1CN(C)C2=O", 10],
  ["C#CCn1nc(C(C)(C)C)cc1C(=O)Nc1cccc(C(=O)NCC)c1", 80],
  ["CCNC(=O)c1cccc(NC(=O)c2sc(C(C)(C)C)nc2C)c1", 5],
  ["CCN(C)C(=O)c1cccc(NC(=O)c2cc(C(C)(C)C)nn2CC)c1", 30]
]}

---

Measured Morningglory plant response rating values are reported for all entries that follow.
# System: morningglory
# experiment notes: Test B pre-/postemergence herbicide test
# Assay type: in vivo, Ipomoea coccinea
# details: postemergence, 125 g ai/ha; visual rating, scale 0 (no effect) to 100 (complete control)

{"columns": ["compound", "assayed system", "Morningglory plant response rating"],
 "data": [
  ["CCCCn1nc(C(C)(C)C)cc1C(=O)Nc1cccc(C(C)=NO)c1 [Compound 119]", "morningglory", 0],
  ["CCCCOC(=O)c1cccc(NC(=O)c2cc(C(C)(C)C)nn2CC)c1 [Compound 86]", "morningglory", 60],
  ["CCOC(=O)c1cc(NC(=O)c2cc(C(C)(C)C)nn2CC)c(F)cc1F [Compound 250]", "morningglory", 20],
  ["CCn1nc(C(C)(C)C)cc1C(=O)Nc1cccc2c1CCN(C1CC1)C2=O [Compound 64]", "morningglory", 0],
  ["CCn1nc(C(C)(C)C)cc1C(=O)Nc1cccc(C(=O)OC(C)(C)C)c1 [Compound 98]", "morningglory", 0],
  ["C#CCn1nc(C(C)(C)C)cc1C(=O)Nc1cccc(C(=O)NCC)c1 [Compound 50]", "morningglory", 70],
  ["CCNC(=O)c1cccc(NC(=O)c2cn(C(C)(C)C)nc2CC)c1 [Compound 181]", "morningglory", 20],
  ["CCCCNS(=O)(=O)c1cccc(NC(=O)c2cc(C(C)(C)C)nn2C)c1 [Compound 125]", "morningglory", 0],
  ["CCn1nc(C(C)(C)C)cc1C(=O)Nc1cc(C(=O)N(C)C)c(F)cc1F [Compound 270]", "morningglory", 0],
  ["CCn1nc(C(C)(C)C)cc1C(=O)Nc1cc(C(=O)N2CC=CC2)ccn1 [Compound 142]", "morningglory", 0],
  ["CC(=NO)c1cccc(NC(=O)c2cc(C(C)(C)C)nn2C(C)C)c1 [Compound 110]", "morningglory", 20],
  ["CCOC(=O)c1cc(NC(=O)c2cc(C(C)(C)C)nn2CC)ccc1C [Compound 99]", "morningglory", 0],
  ["CCn1nc(C(C)(C)C)cc1C(=O)Nc1nc(OC)cc(OC)n1 [Compound 166]", "morningglory", 0],
  ["CCn1nc(C(C)(C)C)cc1C(=O)Nc1cccc(SC(F)(F)F)c1 [Compound 130]", "morningglory", 100],
  ["CCNC(=O)c1cccc(NC(=O)c2sc(C(C)(C)C)nc2C)c1 [Compound 198]", "morningglory", 60],
  ["CCc1nc(C(C)(C)C)sc1C(=O)Nc1cc(C(=O)N(CC)CC)ccc1F [Compound 230]", "morningglory", 20],
  ["CCN(CC)C(=O)c1cc(NC(=O)c2cc(C(C)(C)C)nn2CC)c(F)cc1F [Compound 253]", "morningglory", 0],
  ["CCOC(=O)c1cccc(NC(=O)c2cc(C(C)(C)C)nn2CC)c1OC [Compound 97]", "morningglory", 0],
  ["CCn1nc(C(C)(C)C)c(F)c1C(=O)Nc1cccc(C(=O)N(C)C)n1 [Compound 274]", "morningglory", 0]
]}

FYI, the data here is from patent US20060069132A1.
